system: DLD1; test: TCF/Wnt firefly luciferase reporter signal relative to plate median (fraction of plate median); higher = higher Wnt reporter signal; conditions: 10 µM; treatment time 24 h; reporter: 7TFP
measured_parameter: TCF/Wnt firefly luciferase reporter signal
Just the number, please, no unit attached.

molecule	assay_result
CNC(=O)c1ccccc1Sc1ccc2c(/C=C/c3ccccn3)n[nH]c2c1	1.7

Query block: Identify the reported TCF/Wnt firefly luciferase reporter signal for the following entry. CNC(=O)c1cc(Oc2ccc(NC(=O)Nc3ccc(Cl)c(C(F)(F)F)c3)cc2)ccn1
Result block: 0.959

Query block: Hello, please tell me recorded TCF/Wnt firefly luciferase reporter signal for this one: COc1cc2ncnc(Nc3ccc(F)c(Cl)c3)c2cc1NC(=O)/C=C/CN1CCCCC1
Result block: 0.615

Query block: Hello, please tell me recorded TCF/Wnt firefly luciferase reporter signal for this one: Cc1ccc(NC(=O)c2cccc(N(C)C)c2)cc1NC(=O)c1ccc(O)cc1
Result block: 1.07

Query block: Note down TCF/Wnt firefly luciferase reporter signal recorded for Cc1csc(-c2nnc(Nc3ccc(Oc4ncccc4-c4ccnc(N)n4)cc3)c3ccccc23)c1
Result block: 1.08

Query block: Please list TCF/Wnt firefly luciferase reporter signal recorded for the molecule COc1cc2ncnc(Nc3cccc(Br)c3)c2cc1OC
Result block: 0.631

Query block: Look up and report measured TCF/Wnt firefly luciferase reporter signal for this entry: OCCn1cc(-c2ccc3c(c2)CC/C3=N\O)c(-c2ccncc2)n1
Result block: 1.5

Query block: Look up and report measured TCF/Wnt firefly luciferase reporter signal for this entry: CN(C)Cc1cccc(N=C(c2ccccc2)c2c(O)[nH]c3cc(C(=O)N(C)C)ccc23)c1
Result block: 0.966

Query block: Read the entry Cc1ncc(-c2ccnc(Nc3ccc(S(C)(=O)=O)cc3)n2)n1C(C)C and write its reported TCF/Wnt firefly luciferase reporter signal.
Result block: 0.499

Query block: Provide only the value of recorded TCF/Wnt firefly luciferase reporter signal for Cc1[nH]c(/C=C2\C(=O)Nc3ccccc32)c(C)c1CCC(=O)O
Result block: 1.93

Query block: Consider the molecule CCc1cc2c(cc1N1CCC(N3CCOCC3)CC1)C(C)(C)c1[nH]c3cc(C#N)ccc3c1C2=O . State its measured TCF/Wnt firefly luciferase reporter signal.
Result block: 1.08

Query block: Annotate the molecule C=CC(=O)Nc1ccc2ncnc(Nc3ccc(OCc4cccc(F)c4)c(Cl)c3)c2c1 with its measured TCF/Wnt firefly luciferase reporter signal.
Result block: 0.691

Query block: Return the recorded TCF/Wnt firefly luciferase reporter signal value; entry: CN(c1ncccc1CNc1nc(Nc2ccc3c(c2)CC(=O)N3)ncc1C(F)(F)F)S(C)(=O)=O
Result block: 0.732

Query block: Tell me measured TCF/Wnt firefly luciferase reporter signal for COc1cc(N2CCC(N3CCN(C)CC3)CC2)ccc1Nc1ncc(Cl)c(Nc2ccccc2S(=O)(=O)C(C)C)n1 please.
Result block: 0.909

Query block: Item O=C1NC(=O)[C@@H](c2cn3c4c(cccc24)CCC3)[C@@H]1c1c[nH]c2ccccc12 [ARQ 197 (Tivantinib)] : provide TCF/Wnt firefly luciferase reporter signal
Result block: 0.632
